Source: patent US20260256811A1

# testMethodNotes: in vivo
# measurementSetup: mouse, po, 100 mg/kg

>  <compound>
C[C@H](CCCN1CCCCC1)[C@H]1CC[C@@]2(C)C3CC[C@H]4C(C)(C)[C@@H](O)CC[C@@]45C[C@@]35CC[C@]12C (stereo partly shown)

>  <concentration at 24 hours / ng/mL>
242

$$$$

###

# testMethodNotes: Metabolic stability in mouse liver microsomes
# Assay type: in vitro ADME
# measurementSetup: mouse, microsomes
Property: microsomal CLint at 2 μg/mL; scope: individual compounds

>  <compound>
CC(C)=CCC[C@@H](C)[C@H]1CC[C@@]2(C)C3CC[C@H]4C(C)(C)[C@@H](O)CC[C@@]45C[C@@]35CC[C@]12C (stereo partly drawn) [Compound 2]

>  <microsomal CLint at 2 μg/mL [µL/min/mg]>
12.3

$$$$
>  <compound>
C[C@H](CCCNCCOCCOCCOCCOCCOCCOCCOCCOCCOCCOCCOCCO)[C@H]1CC[C@@]2(C)C3CC[C@H]4C(C)(C)[C@@H](O)CC[C@@]45C[C@@]35CC[C@]12C (stereo partly drawn) [Compound 33]

>  <microsomal CLint at 2 μg/mL [µL/min/mg]>
21.1

$$$$
>  <compound>
C[C@H](CCCN1CCCCC1)[C@H]1CC[C@@]2(C)C3CC[C@H]4C(C)(C)[C@@H](O)CC[C@@]45C[C@@]35CC[C@]12C (stereo partly drawn) [Compound 27]

>  <microsomal CLint at 2 μg/mL [µL/min/mg]>
2.27

$$$$
